Source: ChEMBL document CHEMBL1129258

biological target: DNA gyrase (Escherichia coli) (UniProt P0AES6+P0AES4); assay: In vitro antibacterial activity against gram-negative organism […] ATCC 13048; format: functional; details: Enterobacter aerogenes
Reported MIC values for the following compounds.
# number only, unit µg/mL dropped from output

These recorded examples may help you get a feel for the data.
                                   compound  measured_property  measured_number
0  NC1CCN(c2nc3c(-c4c(F)c(F)c(F)c(F)c4F)cc(C(=O)O)c(=O)n3cc2F)C1 (centres undefined)                MIC              6.2
1  CCc1cc(C(=O)O)c(=O)n2cc(F)c(N3CCC(N)C3)c(C)c12 (centres undefined)                MIC             0.05
2  Cc1c(N2CC[C@H]([C@@H](C)N)C2)c(F)cn2c(=O)c(C(=O)O)cc(C3CC3)c12                MIC             0.02

# evaluate next
stdin: // map "Cc1c(N2CC[C@@H](N)C2)c(F)cn2c(=O)c(C(=O)O)cc(C3CC3)c12" to recorded MIC (system: DNA gyrase (Escherichia coli) (UniProt P0AES6+P0AES4))
stdout: 0.01

---

Reported MIC values for the following compounds.
molecular target: DNA gyrase (Escherichia coli) (UniProt P0AES6+P0AES4); test: In vitro antibacterial activity against gram-negative organism Klebsiella pneumoniae ATCC 8045; type: functional

>>> df
                            molecule_smiles     result
0  Cc1c(NCCN)c(F)cn2c(=O)c(C(=O)O)cc(C3CC3)c12  0.2 µg/mL
1  CN1CCN(c2nc3c(-c4ccc(F)cc4F)cc(C(=O)O)c(=O)n3cc2F)CC1  0.2 µg/mL

# evaluate next
stdin: Look up MIC: "CN1CCN(c2nc3c(-c4ccc(F)cc4)cc(C(=O)O)c(=O)n3cc2F)CC1"
stdout: 0.2 µg/mL

---

molecular target: DNA gyrase (Escherichia coli) (UniProt P0AES6+P0AES4); assay: In vivo efficacy against Escherichia coli JUHL by subcutaneous administration; format: functional, organism-based; details: Escherichia coli K-12
One threshold, 0.4 mg/kg, splits the recorded ED50 values: lower ones are Criterion met, equal or higher ones are Criterion not met.

                                   compound           category
0  Cc1c(N2CCC(O)C2)c(F)cn2c(=O)c(C(=O)O)cc(C3CC3)c12 (configuration not stated)  Criterion not met

stdin: Please check: ED50 for "Cc1c(N2CC[C@@H](N)C2)c(F)cn2c(=O)c(C(=O)O)cc(C3CC3)c12" , strictly under 0.4 mg/kg or not?
stdout: Criterion met

stdin: Please check: ED50 for NC1CCN(c2c(F)cn3c(=O)c(C(=O)O)cc(C4CC4)c3c2Cl)C1 (configuration not stated) , strictly under 0.4 mg/kg or not?
stdout: Criterion not met

stdin: Please check: ED50 for "Cc1c(N2C[C@@H](C)N[C@@H](C)C2)c(F)cn2c(=O)c(C(=O)O)cc(C3CC3)c12" , strictly under 0.4 mg/kg or not?
stdout: Criterion not met

---

test: In vitro antibacterial activity against gram-negative organism Pseudomonas aeruginosa 5007; type: functional; conditions: Pseudomonas aeruginosa; read-out: MIC
One threshold, 2 µg/mL, splits the recorded MIC values: lower ones are Satisfied, equal or higher ones are Not satisfied.

Check out these entries, answers already filled in.
In [3]: df
Out[3]:
                                   compound       category
0  CCc1c(N2CCC(N)C2)c(F)cn2c(=O)c(C(=O)O)cc(C3CC3)c12 (stereo not drawn)      Satisfied
1  CCc1cc(C(=O)O)c(=O)n2ccc(N3CCC(N)C3)cc12.Cl (stereo not drawn)  Not satisfied
2  Cc1c(N2CCCNCC2)c(F)cn2c(=O)c(C(=O)O)cc(C3CC3)c12      Satisfied
3  Cc1c(N2CCC(N)C2)c(F)cn2c(=O)c(C(=O)O)cc(C3CC3)c12 (stereo not drawn)      Satisfied
4  NC1CCN(c2c(F)cn3c(=O)c(C(=O)O)cc(C4CC4)c3c2F)C1 (stereo not drawn)      Satisfied

stdin: Please check: MIC for "CC(=O)N[C@H]1C[C@H](C)N(c2nc3c(-c4ccc(F)cc4F)cc(C(=O)O)c(=O)n3cc2F)C1" , strictly under 2 µg/mL or not?
stdout: Not satisfied

stdin: Please check: MIC for Cc1c(N2C[C@H]3CCN[C@H]3C2)c(F)cn2c(=O)c(C(=O)O)cc(C3CC3)c12 (single isomer, unassigned) , strictly under 2 µg/mL or not?
stdout: Satisfied

stdin: Please check: MIC for "Cc1c(N2C[C@@H](C)N[C@@H](C)C2)c(F)cn2c(=O)c(C(=O)O)cc(C3CC3)c12" , strictly under 2 µg/mL or not?
stdout: Satisfied

---

target: DNA gyrase (Escherichia coli) (UniProt P0AES6+P0AES4); test: In vitro antibacterial activity against gram-positive organism Enterococcus faecium ATCC 8043; assay type: functional
Reported MIC values for the following molecules.
# number only, unit µg/mL dropped from output

These recorded examples may help you get a feel for the data.
>>> df
                                   molecule                            assayed_system  measured_property  units_symbol  measured_number
0  Cc1c(N2C[C@@H](N)[C@@H](C)C2)c(F)cn2c(=O)c(C(=O)O)cc(C3CC3)c12  DNA gyrase (Escherichia coli) (UniProt P0AES6+P0AES4)                MIC         µg/mL             0.05
1  Cc1c(N2C[C@@H]3CCN[C@@H]3C2)c(F)cn2c(=O)c(C(=O)O)cc(C3CC3)c12 (stereo in doubt; 45o)  DNA gyrase (Escherichia coli) (UniProt P0AES6+P0AES4)                MIC         µg/mL             0.05

# evaluate next
stdin: Look up MIC: "Cc1c(N2C[C@@H](N)C[C@H]2C)c(F)cn2c(=O)c(C(=O)O)cc(C3CC3)c12"
stdout: 0.05

---

target: DNA gyrase (Staphylococcus aureus) (UniProt P0A0K8+P20831); test: In vitro antibacterial activity against gram-positive organism Staphylococcus aureus ATCC 6538p; format: functional
Sequence (P0A0K8 2-644 limits assumed): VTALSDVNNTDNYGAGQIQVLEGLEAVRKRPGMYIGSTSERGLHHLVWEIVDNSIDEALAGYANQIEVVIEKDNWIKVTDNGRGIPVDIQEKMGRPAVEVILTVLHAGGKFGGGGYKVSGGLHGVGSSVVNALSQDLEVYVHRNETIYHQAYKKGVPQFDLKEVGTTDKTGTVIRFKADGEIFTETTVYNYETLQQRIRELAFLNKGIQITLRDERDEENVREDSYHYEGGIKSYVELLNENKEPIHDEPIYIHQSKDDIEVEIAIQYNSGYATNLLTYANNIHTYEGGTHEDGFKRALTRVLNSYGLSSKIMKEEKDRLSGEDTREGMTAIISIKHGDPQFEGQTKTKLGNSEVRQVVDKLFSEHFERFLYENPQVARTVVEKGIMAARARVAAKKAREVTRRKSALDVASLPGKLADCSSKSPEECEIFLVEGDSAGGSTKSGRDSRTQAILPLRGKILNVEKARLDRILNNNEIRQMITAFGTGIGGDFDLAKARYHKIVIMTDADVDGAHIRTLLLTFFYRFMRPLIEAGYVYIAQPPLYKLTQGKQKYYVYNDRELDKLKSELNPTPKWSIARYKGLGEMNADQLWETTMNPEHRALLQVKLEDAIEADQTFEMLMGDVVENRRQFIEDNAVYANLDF
Sequence (P20831 whole entry partner): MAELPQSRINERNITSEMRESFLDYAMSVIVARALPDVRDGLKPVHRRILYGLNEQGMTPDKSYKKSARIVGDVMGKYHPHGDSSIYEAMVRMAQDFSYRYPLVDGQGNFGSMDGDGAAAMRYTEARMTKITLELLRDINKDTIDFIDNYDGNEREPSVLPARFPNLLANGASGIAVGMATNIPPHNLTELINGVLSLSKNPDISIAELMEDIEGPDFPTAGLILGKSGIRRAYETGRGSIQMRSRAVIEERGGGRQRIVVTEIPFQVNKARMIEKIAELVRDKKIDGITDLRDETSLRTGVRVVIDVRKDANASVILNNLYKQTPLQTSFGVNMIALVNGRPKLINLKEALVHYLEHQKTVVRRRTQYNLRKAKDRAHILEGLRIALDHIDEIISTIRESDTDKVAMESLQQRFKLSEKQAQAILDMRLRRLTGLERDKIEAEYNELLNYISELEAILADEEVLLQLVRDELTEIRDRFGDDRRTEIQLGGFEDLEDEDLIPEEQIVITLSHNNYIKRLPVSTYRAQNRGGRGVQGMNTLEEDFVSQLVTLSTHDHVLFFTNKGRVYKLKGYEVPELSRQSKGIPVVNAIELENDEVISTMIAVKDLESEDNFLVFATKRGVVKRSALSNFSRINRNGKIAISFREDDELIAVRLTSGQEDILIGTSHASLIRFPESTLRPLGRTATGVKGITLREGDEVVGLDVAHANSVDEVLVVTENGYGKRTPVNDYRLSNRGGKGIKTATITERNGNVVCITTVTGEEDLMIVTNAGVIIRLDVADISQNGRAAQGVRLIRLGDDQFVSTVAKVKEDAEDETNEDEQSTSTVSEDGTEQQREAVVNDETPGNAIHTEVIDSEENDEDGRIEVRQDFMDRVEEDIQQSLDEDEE
One threshold, 0.1 µg/mL, splits the recorded MIC values: lower ones are Fulfilled, equal or higher ones are Not fulfilled.

Check out these entries, answers already filled in.
In [3]: df
Out[3]:
                                   compound   category
0  Cc1c(N2CCC(n3ccnn3)C2)c(F)cn2c(=O)c(C(=O)O)cc(C3CC3)c12 (configuration not stated)  Fulfilled
1  Cc1c(N2C[C@H]3CCN[C@H]3C2)c(F)cn2c(=O)c(C(=O)O)cc(C3CC3)c12 (single isomer, unassigned)  Fulfilled

stdin: Please check: MIC for Cc1c(N2CCC(N)C2)c(F)cn2c(=O)c(C(=O)O)cc(C3CC3)c12 (configuration not stated) , strictly under 0.1 µg/mL or not?
stdout: Fulfilled

stdin: Please check: MIC for Cc1c(N2C[C@@H]3CCCN[C@@H]3C2)c(F)cn2c(=O)c(C(=O)O)cc(C3CC3)c12 (stereo in doubt; (S,S)45n) , strictly under 0.1 µg/mL or not?
stdout: Fulfilled

stdin: Please check: MIC for "Cc1c(N2CC[C@@H](O)C2)c(F)cn2c(=O)c(C(=O)O)cc(C3CC3)c12" , strictly under 0.1 µg/mL or not?
stdout: Fulfilled

stdin: Please check: MIC for Cc1c(N2CCC(O)C2)c(F)cn2c(=O)c(C(=O)O)cc(C3CC3)c12 (configuration not stated) , strictly under 0.1 µg/mL or not?
stdout: Fulfilled

stdin: Please check: MIC for Cl.O=C(O)c1cn(C2CC2)c2cc(N3CCNCC3)c(F)cc2c1=O [CIPROFLOXACIN HYDROCHLORIDE] , strictly under 0.1 µg/mL or not?
stdout: Not fulfilled

stdin: Please check: MIC for "Cc1c(N2C[C@H]3CCC[C@@H](N)[C@H]3C2)c(F)cn2c(=O)c(C(=O)O)cc(C3CC3)c12" , strictly under 0.1 µg/mL or not?
stdout: Fulfilled

stdin: Please check: MIC for "Cc1c(N(C)CCN)c(F)cn2c(=O)c(C(=O)O)cc(C3CC3)c12" , strictly under 0.1 µg/mL or not?
stdout: Not fulfilled

stdin: Please check: MIC for "Cc1c(N2CC[C@H](N)C2)c(F)cn2c(=O)c(C(=O)O)cc(C3CC3)c12" , strictly under 0.1 µg/mL or not?
stdout: Fulfilled

---

molecular target: DNA gyrase (Escherichia coli) (UniProt P0AES6+P0AES4); assay: In vitro antibacterial activity against gram-positive organism Enterococcus faecium ATCC 8043; type: functional
measured_property: log10(MIC) (log10 of the value in µg/mL)
Please keep in mind that the values are log10 of MIC expressed in µg/mL.

These recorded examples may help you get a feel for the data.
compound	log10(MIC)
Cc1c(N2CC[C@@H](O)C2)c(F)cn2c(=O)c(C(=O)O)cc(C3CC3)c12	-0.70
COc1c(N2CCC(N)C2)c(F)cn2c(=O)c(C(=O)O)cc(C3CC3)c12 (configuration not stated)	-0.70
Cc1ccc(S(=O)(=O)O)cc1.NC1CCN(c2nc3c(cc2F)c(=O)c(C(=O)O)cn3-c2ccc(F)cc2F)C1 (configuration not stated) [TOSUFLOXACIN TOSYLATE]	-0.70
CCc1cc(C(=O)O)c(=O)n2cc(F)c(N3CCC(N)C3)c(C)c12 (configuration not stated)	-0.70

stdin: Look up log10(MIC): "Cc1c(N2CC(N)C2)c(F)cn2c(=O)c(C(=O)O)cc(C3CC3)c12"
stdout: -0.70

stdin: Look up log10(MIC): "Cc1c(N2CCCNCC2)c(F)cn2c(=O)c(C(=O)O)cc(C3CC3)c12"
stdout: -0.70

stdin: Look up log10(MIC): CCc1c(N2CCC(N)C2)c(F)cn2c(=O)c(C(=O)O)cc(C3CC3)c12 (configuration not stated)
stdout: -0.41
